Values from patent US10538520B2

IC50 values, listed per item
Tested on: MV4-11
Assay: Cytotoxicity towards MV4-11 cell line
Format: cell-based
Settings: Homo sapiens

Compound | IC50
Cn1cc(-c2ccc(C(=O)NCCCc3cn[nH]c3)cc2C#Cc2ccc(F)cc2)cn1 | < 1 µM
Cc1ccnn1CCNC(=O)c1ccc(-n2cccn2)c(C#Cc2cccnc2)c1 | > 20 µM
O=C(NCCCn1ccnc1)c1ccc(-n2cccn2)c(C#Cc2ccc(F)cc2)c1 | < 1 µM
O=C(NCCCc1cn[nH]c1)c1ccc(N2CCOC(CN3CCCCC3)C2)c(C#Cc2ccc(F)cc2)c1 (stereo not shown) | < 1 µM

###

System: U-937
Experiment: Cytotoxicity towards U-937 cell line
Assay type: cell-based
Conditions: Homo sapiens
Protocol: In various embodiments, the compounds of the disclosure are those in which show IC50 values in cytotoxicity experiments towards cells lines MV4-11 and U937 of >20 μM, 10-20 μM, 5-10 μM, 1-5 μM, or <1 μM. The IC50 is divided into 5 categories: A<1 μM, B 1-5 μM, C 5-10 μM, D 10-20 μM, and E>20 μM.

Compound | IC50
O=C(NCCCn1ccnc1)c1ccc(N2CCOCC2)c(C#Cc2ccccc2)c1 [TT-03261] | < 1 µM
O=C(NCCCc1cn[nH]c1)c1ccc(N2CCCC2)c(C#Cc2ccccc2)c1 [TT-03230] | < 1 µM
O=C(NCCCn1ccnc1)c1ccc(-c2ccncc2)c(C#Cc2ccccc2)c1 [TT-03256] | < 1 µM
O=C(NCCCc1cn[nH]c1)c1ccc(N2CCOCC2)c(C#Cc2ccccc2)c1 [TT-03232] | < 1 µM
Cn1nnnc1SCCNC(=O)c1ccc(-n2cccn2)c(C#Cc2ccccc2)c1 [TT-02928] | 5 to 10 µM
CN(C)c1cccc(C#Cc2cc(C(=O)NCCCc3cn[nH]c3)ccc2-n2cccn2)n1 [TT-03623] | < 1 µM
O=C(NCCCc1cn[nH]c1)c1ccc(-n2cccn2)c(C#Cc2ccncc2)c1 [TT-03304] | < 1 µM
C[C@@H]1CN(c2ccc(C(=O)N3CC[C@H](O)[C@@H](n4ccnc4)CC3)cc2C#Cc2ccc(F)cc2)C[C@H](C)O1 [TT-03732] | 1 to 5 µM
O=C(NCc1ccco1)c1ccc(-n2cccn2)c(C#Cc2ccccn2)c1 [TT-02947] | < 1 µM
Cc1n[nH]c(SCCNC(=O)c2ccc(-n3cccn3)c(C#Cc3cccnc3)c2)n1 [TT-02940] | 10 to 20 µM
O=C1CC2CCC(CN1)N2c1ncc(C(=O)NCCCc2cn[nH]c2)cc1C#Cc1ccc(F)cc1 (stereo not shown) [TT-03765] | < 1 µM
CN(C)c1ccc(C(=O)NCCCn2ccnc2)cc1C#Cc1ccccc1 [TT-03252] | < 1 µM
O=C(NCCN1CCCC1=O)c1ccc(-n2cccn2)c(C#Cc2ccccc2)c1 [TT-02929] | > 20 µM
COc1cccc(C#Cc2cc(C(=O)NCCCc3cn[nH]c3)ccc2-n2cccn2)c1 [TT-03308] | < 1 µM
CC(C)(C)OC(=O)N1CCN(c2ccc(C(=O)NCCCc3cn[nH]c3)cc2C#Cc2ccc(F)cc2)CC1 [TT-03596] | < 1 µM
CCc1nnc(NC(=O)c2ccc(-n3cccn3)c(C#Cc3cccnc3)c2)s1 [TT-02932] | > 20 µM
O=C(NCCCN1CCCC1=O)c1ccc(-n2cccn2)c(C#Cc2cccnc2)c1 [TT-02937] | > 20 µM
Cc1cc(C)n(CCNC(=O)c2ccc(-n3cccn3)c(C#Cc3ccccc3)c2)n1 [TT-02927] | 5 to 10 µM
O=C(NCCCc1cn[nH]c1)c1ccc(-n2cccn2)c(C#Cc2ccc(C(F)(F)F)cc2)c1 [TT-03324] | 1 to 5 µM
O=C(NCCCn1ccnc1)c1ccc(-n2cccn2)c(C#Cc2ccccn2)c1 [TT-02695] | < 1 µM
CNC(=O)c1cccc(C#Cc2cc(C(=O)NCCCc3cn[nH]c3)ccc2-n2cccn2)c1 [TT-03359] | < 1 µM
Cc1nncn1-c1ccc(C(=O)NCCCn2ccnc2)cc1C#Cc1ccccc1 [TT-02732] | < 1 µM
CC(C)(C)OC(=O)NCc1ccc(C#Cc2cc(C(=O)NCCCc3cn[nH]c3)ccc2-n2cccn2)cc1 [TT-03364] | 1 to 5 µM
O=C(NCCCc1cn[nH]c1)c1ccc(-c2ccncc2)c(C#Cc2ccccc2)c1 [TT-03246] | < 1 µM
O=C(NCCCn1ccnc1)c1ccc(N2CCCC2)c(C#Cc2ccccc2)c1 [TT-02683] | < 1 µM
O=C(NCCc1nccs1)c1ccc(-n2cccn2)c(C#Cc2ccccc2)c1 [TT-02707] | < 1 µM
Cc1cccc(C#Cc2cc(C(=O)NCCCc3cn[nH]c3)ccc2-n2cccn2)c1 [TT-03328] | < 1 µM
O=C(NCCCc1cn[nH]c1)c1cnc(N2CC[S+]([O-])CC2)c(C#Cc2ccc(F)cc2)c1 [TT-03782] | < 1 µM
C[C@@H]1CN(c2ncc(C(=O)NC/C=C/c3cn[nH]c3)cc2C#Cc2ccc(Cl)cc2)C[C@H](C)O1 [TT-03752] | < 1 µM
O=C(NCCCc1cn[nH]c1)c1ccc(-c2cccnc2)c(C#Cc2ccccc2)c1 [TT-03245] | < 1 µM
O=C(NCCCn1ccnc1)c1ccc(-n2cccn2)c(C#Cc2ccc(C(F)(F)F)cc2)c1 [TT-02747] | 5 to 10 µM
O=C(NCCCc1ccccn1)c1ccc(-n2cccn2)c(C#Cc2ccccc2)c1 [TT-02935] | 5 to 10 µM
O=C(NCCCN1CCOCC1)c1ccc(-n2cccn2)c(C#Cc2cccnc2)c1 [TT-02936] | > 20 µM
C#Cc1cc(C(=O)NCCCn2ccnc2)ccc1-n1cccn1 [TT-02752] | 10 to 20 µM
